Test: Metabolic stability in mouse liver microsomes assessed as compound remaining after 5 mins by LC-MS/MS analysis
Format: ADME
Conditions: liver microsomes, read-out: Stability
result_type: remaining at 5 min (%)
Give the quantity in %, number only.

Some entries whose results are on file:
chemical_string | quantitative_readout
COc1ccc(CN2CCN(CC(=O)c3ccc(OC(C)C)c(-n4c(CN5CCN(C(=O)COc6ccc(Cl)cc6)CC5)nc5ccccc5c4=O)c3)CC2)cc1 | 29.7
C=CCN1CCN(CC(=O)c2ccc(OC(C)C)c(-n3c(CN4CCN(C(=O)COc5ccc(Cl)cc5)CC4)nc4ccccc4c3=O)c2)CC1 | 37.3

Query (molecule): `CC(C)Oc1ccc(C(=O)CN2CCNCC2)cc1-n1c(CN2CCN(C(=O)COc3ccc(Cl)cc3)CC2)nc2ccccc2c1=O` ; field requested: remaining at 5 min 87.4

Looking for the measured remaining at 5 min of `CC(C)Oc1ccc(C(=O)CN2CCOCC2)cc1-n1c(CN2CCN(C(=O)COc3ccc(Cl)cc3)CC2)nc2ccccc2c1=O` , can you help? 83.8

# remaining at 5 min lookup, item `CC(C)Oc1ccc(C(=O)Cn2ccnc2)cc1-n1c(CN2CCN(C(=O)COc3ccc(Cl)cc3)CC2)nc2ccccc2c1=O` 89.3

* * *

Experiment: Metabolic stability in mouse liver microsomes assessed as compound remaining after 30 mins by LC-MS/MS analysis
Format: ADME
Settings: read-out: Stability
# remaining at 0.5 h annotations
// units = %; emit number, no label

Please review the following examples before continuing.
chemical_string | quantitative_readout
CC(C)Oc1ccc(C(=O)Cn2ccnc2)cc1-n1c(CN2CCN(C(=O)COc3ccc(Cl)cc3)CC2)nc2ccccc2c1=O | 75.4
CC(=O)c1ccc(OC(C)C)c(-n2c(CN3CCN(C(=O)COc4ccc(Cl)cc4)CC3)nc3ccccc3c2=O)c1 | 0
CC(C)Oc1ccc(C(=O)CN2CCOCC2)cc1-n1c(CN2CCN(C(=O)COc3ccc(Cl)cc3)CC2)nc2ccccc2c1=O | 30.6

What measured remaining at 0.5 h goes with `COc1ccc(CN2CCN(CC(=O)c3ccc(OC(C)C)c(-n4c(CN5CCN(C(=O)COc6ccc(Cl)cc6)CC5)nc5ccccc5c4=O)c3)CC2)cc1` ? 0.3

What value of measured remaining at 0.5 h is listed for `CC(C)Oc1ccc(C(=O)CN2CCNCC2)cc1-n1c(CN2CCN(C(=O)COc3ccc(Cl)cc3)CC2)nc2ccccc2c1=O` ? 76.2

Report remaining at 0.5 h for `CC(C)Oc1ccc(C(=O)CF)cc1-n1c(CN2CCN(C(=O)COc3ccc(Cl)cc3)CC2)nc2ccccc2c1=O` please. 0

Quick one: remaining at 0.5 h for `CC(C)Oc1ccc(CN2CCNCC2)cc1-n1c(CN2CCN(C(=O)COc3ccc(Cl)cc3)CC2)nc2ccccc2c1=O` ? 66.6

For the compound shown here, `C=CCN1CCN(CC(=O)c2ccc(OC(C)C)c(-n3c(CN4CCN(C(=O)COc5ccc(Cl)cc5)CC4)nc4ccccc4c3=O)c2)CC1` , give the reported remaining at 0.5 h. 0
